Provenance of the data: the CheMixHub drug solubility set

EXPERIMENT: xn = mol fraction of the nth substance listed, in the solute-free solvent
RUN_CONDITIONS: 323.15 K; x2 = 0.7788
PROPERTY: solubility (g/100 g solution)
Format: numeric value only, no unit, no commentary.

Problem: Given the entry Nc1ncc(Br)nc1Br + CCO + O , report its measured solubility (g/100 g solution).
Result: 1.4

Problem: Given the entry CC(C)C(=O)Nc1ccc([N+](=O)[O-])c(C(F)(F)F)c1 + CCO + O , report its measured solubility (g/100 g solution).
Result: 41.7

Problem: Given the entry Nc1cc(-c2ccncc2)c[nH]c1=O + CCO + O , report its measured solubility (g/100 g solution).
Result: 0.0368

Problem: Given the entry O=C1C=CC(=O)N1c1ccccc1Br + CCO + O , report its measured solubility (g/100 g solution).
Result: 23.7
